- measurement target: Peroxisome proliferator-activated receptor gamma/Nuclear receptor coactivator 2 (Homo sapiens);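 also: agonist potency for raising coactivator recruitment to the receptor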
- Sequence (P37231 whole entry): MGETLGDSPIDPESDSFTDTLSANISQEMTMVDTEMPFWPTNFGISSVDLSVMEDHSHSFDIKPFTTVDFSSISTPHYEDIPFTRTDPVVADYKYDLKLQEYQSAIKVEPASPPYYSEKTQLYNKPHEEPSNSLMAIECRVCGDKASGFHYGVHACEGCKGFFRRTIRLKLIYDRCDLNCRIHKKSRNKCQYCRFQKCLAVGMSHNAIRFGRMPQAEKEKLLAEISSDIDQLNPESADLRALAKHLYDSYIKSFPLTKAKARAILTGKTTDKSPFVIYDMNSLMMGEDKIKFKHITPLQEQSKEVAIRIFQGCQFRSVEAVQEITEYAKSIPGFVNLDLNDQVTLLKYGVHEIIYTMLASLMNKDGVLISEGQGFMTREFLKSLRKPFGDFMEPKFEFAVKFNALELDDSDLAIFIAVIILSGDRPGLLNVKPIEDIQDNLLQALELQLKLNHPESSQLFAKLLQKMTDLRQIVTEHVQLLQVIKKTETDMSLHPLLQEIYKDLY
- Sequence (Q15596 whole entry, further chain): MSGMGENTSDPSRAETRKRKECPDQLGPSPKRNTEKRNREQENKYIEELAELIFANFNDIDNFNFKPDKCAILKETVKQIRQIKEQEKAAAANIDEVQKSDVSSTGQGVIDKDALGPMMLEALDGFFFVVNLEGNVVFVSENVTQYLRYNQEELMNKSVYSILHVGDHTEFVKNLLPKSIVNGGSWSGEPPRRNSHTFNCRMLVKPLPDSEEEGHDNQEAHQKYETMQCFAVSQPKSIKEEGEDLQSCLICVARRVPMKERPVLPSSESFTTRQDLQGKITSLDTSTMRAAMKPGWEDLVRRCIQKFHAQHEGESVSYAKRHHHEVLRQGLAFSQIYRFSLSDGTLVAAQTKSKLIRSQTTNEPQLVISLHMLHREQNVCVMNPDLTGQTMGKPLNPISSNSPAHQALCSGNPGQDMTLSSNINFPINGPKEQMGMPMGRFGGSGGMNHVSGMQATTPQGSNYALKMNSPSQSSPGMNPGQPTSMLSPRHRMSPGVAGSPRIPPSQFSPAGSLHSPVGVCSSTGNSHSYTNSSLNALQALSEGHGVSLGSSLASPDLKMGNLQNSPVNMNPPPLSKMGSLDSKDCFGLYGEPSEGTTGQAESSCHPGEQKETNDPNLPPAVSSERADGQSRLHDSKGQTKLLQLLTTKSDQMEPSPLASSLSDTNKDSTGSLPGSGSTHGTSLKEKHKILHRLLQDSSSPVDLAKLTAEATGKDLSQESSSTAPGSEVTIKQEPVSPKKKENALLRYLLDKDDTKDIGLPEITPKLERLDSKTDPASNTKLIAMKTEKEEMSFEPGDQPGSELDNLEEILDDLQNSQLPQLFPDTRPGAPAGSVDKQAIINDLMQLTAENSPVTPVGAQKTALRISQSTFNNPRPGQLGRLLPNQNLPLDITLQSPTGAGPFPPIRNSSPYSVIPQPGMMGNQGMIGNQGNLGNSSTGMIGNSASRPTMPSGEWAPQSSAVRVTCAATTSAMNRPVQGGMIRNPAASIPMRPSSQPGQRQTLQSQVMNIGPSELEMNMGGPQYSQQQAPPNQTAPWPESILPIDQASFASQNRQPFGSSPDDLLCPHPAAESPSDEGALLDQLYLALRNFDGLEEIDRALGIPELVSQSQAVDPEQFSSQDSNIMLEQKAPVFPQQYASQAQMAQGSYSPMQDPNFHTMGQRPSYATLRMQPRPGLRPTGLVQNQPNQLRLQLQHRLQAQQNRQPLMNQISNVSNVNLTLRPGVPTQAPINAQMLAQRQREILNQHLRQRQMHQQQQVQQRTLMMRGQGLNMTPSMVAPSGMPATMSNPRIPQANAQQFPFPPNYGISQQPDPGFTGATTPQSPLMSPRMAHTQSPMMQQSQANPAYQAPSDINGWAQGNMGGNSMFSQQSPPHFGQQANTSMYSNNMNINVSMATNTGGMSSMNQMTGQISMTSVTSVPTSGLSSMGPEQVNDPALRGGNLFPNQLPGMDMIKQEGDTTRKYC
- Format: functional
reported endpoint: EC50

Reference set (5 entries):
[
  {
    "molecule": "CCCCC(CC)c1nnc(NC(=O)c2cccs2)s1 (configuration not stated)",
    "EC50": "> 79.4 µM (not active)"
  },
  {
    "molecule": "Cc1ccc(S(=O)(=O)NC(=O)COc2ccccc2)cc1",
    "EC50": "> 79.4 µM (not active)"
  },
  {
    "molecule": "CCN(CC)CCn1c(NC(=O)c2ccc(Cl)cc2)nc2ccccc21",
    "EC50": "> 79.4 µM (not active)"
  },
  {
    "molecule": "CCN1CCCC1CNC(=O)c1cc2c(-c3ccc(Cl)cc3)nn(C)c2s1 (configuration not stated)",
    "EC50": "> 79.4 µM (not active)"
  },
  {
    "molecule": "Cc1ccc(NS(=O)(=O)c2cccs2)cc1S(=O)(=O)N1CCCCCC1",
    "EC50": "> 79.4 µM (not active)"
  }
]

[ask] Would you mind telling me what EC50 value was observed for COC(=O)c1cnn(-c2nc3c(C)cccc3s2)c1C ?
[reply] 30 µM (not active)

[ask] Would you mind telling me what EC50 value was observed for CN1CCS/C1=C\C=C1/SC(=S)N(CC(=O)O)C1=O ?
[reply] 62.2 µM (not active)

From: ChEMBL document CHEMBL1201862
